- Test Summary: Chemical stability in aqueous buffers by HPLC-MS (no enzyme)
- Assay type: physicochemical
- Run Conditions: pH 4; aqueous buffer, 2 h at 37 °C, HPLC-MS
Where a SMILES comes first, the peptide text is derived from it. The star is where a group is joined. X1 = Cc1ccc(S*)cc1
Assay Metric: remaining at 2 h (%)
One number for each entry, in %.

For CC[C@H](C)[C@H](NC(C)=O)C(=O)NCC(=O)N[C@@H](CC(N)=O)C(=O)N[C@@H](CCCNC(=N)N)C(=O)Sc1ccc(C)cc1 [compound 3] (Ac-IGNR-X1) the compound record lists remaining at 2 h as 70
